# study-system: human VPAC2 (Homo sapiens)
# Construct: expressed in transfected cells
# Sequence (P41587 24-438): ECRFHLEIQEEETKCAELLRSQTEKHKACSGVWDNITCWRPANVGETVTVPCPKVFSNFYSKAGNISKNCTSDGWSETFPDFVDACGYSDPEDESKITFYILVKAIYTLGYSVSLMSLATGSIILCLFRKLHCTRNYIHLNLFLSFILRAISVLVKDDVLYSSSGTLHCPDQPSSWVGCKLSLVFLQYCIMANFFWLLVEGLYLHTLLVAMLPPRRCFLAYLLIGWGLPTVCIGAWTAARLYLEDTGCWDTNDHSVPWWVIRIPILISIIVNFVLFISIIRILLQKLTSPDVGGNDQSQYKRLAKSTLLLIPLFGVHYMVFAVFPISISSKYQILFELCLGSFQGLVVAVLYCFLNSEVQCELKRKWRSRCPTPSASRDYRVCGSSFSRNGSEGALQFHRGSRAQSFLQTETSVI
# protocol: Filter binding assay, membranes of stable VPAC2 cell line, 125I-labeled VIP tracer (Table 2)
# measurement-setup: read-out: Human VPAC2 Receptor Binding
Where no end group is shown, it is not given here. [ ]: non-standard residue; d: D form. The star is where a group is joined. Orn = NCCC[C@H](N)C(=O)O; Hexanoyl = CCCCCC(=O)*; Aib = CC(C)(N)C(=O)O
Would you kindly list IC50 for each of these substances?
Provide the reading as a plain figure in nM.

// query What value of IC50 has been recorded for this entry: Hexanoyl-HSDAVFTDNYTRLR[Aib]QIAA[Aib]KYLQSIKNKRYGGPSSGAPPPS [Agonist P322]
// result 0.4

// query What value of IC50 has been recorded for this entry: Hexanoyl-HSDAVFTDNYTRLR[Aib]QVAA[Aib]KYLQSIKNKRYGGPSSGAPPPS [Agonist P261]
// result 0.2

// query What value of IC50 has been recorded for this entry: Hexanoyl-HSDAVFTDNYTRLR[Aib]QLAA[Aib]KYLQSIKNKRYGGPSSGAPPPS [Agonist P291]
// result 0.45

// query What value of IC50 has been recorded for this entry: Hexanoyl-HSDAVFTDNYTRLRKQVAAKKYAQSIKNKRYGGPSSGAPPPS [Agonist P235]
// result 1.47

// query What value of IC50 has been recorded for this entry: Hexanoyl-HSDAVFTDNYTRLRKQVAAKKYLQSYKNKRYGGPSSGAPPPS [Agonist P111]
// result 0.19

// query What value of IC50 has been recorded for this entry: Hexanoyl-HSDAVFTDNYTRLRKQVAAKKYLQIIKNKRYGGPSSGAPPPS [Agonist P113]
// result 0.69

// query What value of IC50 has been recorded for this entry: Hexanoyl-HSDAVFTDNYTRLRKQVAAKKYLQSIKNKRGGPSSGAPPPS [Agonist P123]
// result 0.26

// query What value of IC50 has been recorded for this entry: Hexanoyl-HSDA[Aib]FTDNYTRLRKQVAAKKYLQSIKNKRYGGPSSGAPPPS [Agonist P212]
// result 0.19

// query What value of IC50 has been recorded for this entry: Hexanoyl-HSDAVFTDNYTRL[Orn][Aib]QVAA[Aib]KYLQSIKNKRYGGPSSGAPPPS [Agonist P319]
// result 0.69

// query What value of IC50 has been recorded for this entry: Hexanoyl-HSDAVFTDNYT[Aib]LR[Aib]QVAA[Aib]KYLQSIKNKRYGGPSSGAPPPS [Agonist P345]
// result 19.3

// query What value of IC50 has been recorded for this entry: Hexanoyl-HSDAVFTDNYTRLRKQVAAKKYLQVIKNKRYGGPSSGAPPPS [Agonist P116]
// result 0.74

// query What value of IC50 has been recorded for this entry: Hexanoyl-HSDALFTDNYTRLRKQVAAKKYLQSIKNKRYGGPSSGAPPPS [Agonist P289]
// result 0.38

// query What value of IC50 has been recorded for this entry: HSDAVFTDNYTRLRKQVAAKKYLQSIRNKRYGGPSSGAPPPS [Agonist P23]
// result 0.92

// query What value of IC50 has been recorded for this entry: Hexanoyl-HSDAVFTDNYTRLRKQVAAWKYLQSIKNKRYGGPSSGAPPPS [Agonist P153]
// result 0.7

// query What value of IC50 has been recorded for this entry: Hexanoyl-HSDAVFTDNYTRLRK(Ac)QVAAK(Ac)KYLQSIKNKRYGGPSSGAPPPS [Agonist P193]
// result 0.37

// query What value of IC50 has been recorded for this entry: Hexanoyl-HSDAVFTDNYTRLRKQVAAKKYLQSIKNKKGGPSSGAPPPS [Agonist P121]
// result 0.19

The reported measurements were obtained from patent US20080026996A1.
